Hi there, I'd appreciate the recorded −TΔS for every entry that follows.
Target: gp120 (Human immunodeficiency virus type 1 group M subtype B)
Construct: made in house; host or cells: Drosophila S2 cells
Format: binding, HIV-1
Settings: ITC, 25° C., PBS pH 7.4
*1 amine or outer side, *2 acyl side, *3 side chain or, on linkers, in order; H or OH if unused. Where a SMILES comes first, the peptide text is derived from it. [ ]: non-standard residue; d: D form. X1 = O=C([C@@H]1C[C@H](n2cc([C]34[CH]5[CH]6[CH]7[CH]3[Fe]6754389%10[CH]4[CH]3[CH]8[CH]9[CH]4%10)nn2)CN1[*:1])[*:2]; Cit = NC(=O)NCCC[C@H](N)C(=O)O

Data point: CC[C@H](C)[C@H](NC(=O)[C@H](CC(N)=O)NC(=O)[C@@H](N)CC(N)=O)C(=O)N1C[C@@H](n2cc([C]34[CH]5[CH]6[CH]7[CH]3[Fe]6754389%10[CH]4[CH]3[CH]8[CH]9[CH]4%10)nn2)C[C@H]1C(=O)N[C@@H](Cc1c[nH]c2ccccc12)C(=O)N[C@@H](CO)C(N)=O (stereo partly shown) [UM31] (H-NNI[X1]WS-NH2) ; −TΔS = +4.1 kcal/mol

Data point: CC[C@H](C)[C@H](NC(=O)[C@H](CC(N)=O)NC(=O)[C@@H](N)CC(N)=O)C(=O)N1C[C@@H](n2cc([C]34[CH]5[CH]6[CH]7[CH]3[Fe]6754389%10[CH]4[CH]3[CH]8[CH]9[CH]4%10)nn2)C[C@H]1C(=O)N[C@@H](Cc1c[nH]c2ccccc12)C(N)=O (stereo partly shown) [UM17] (H-NNI[X1]W-NH2) ; −TΔS = +3.3 kcal/mol

Data point: CC[C@H](C)[C@H](N)C(=O)N[C@@H](CC(N)=O)C(=O)N[C@@H](CC(N)=O)C(=O)N[C@H](C(=O)N1C[C@@H](n2cc([C]34[CH]5[CH]6[CH]7[CH]3[Fe]6754389%10[CH]4[CH]3[CH]8[CH]9[CH]4%10)nn2)C[C@H]1C(=O)N[C@@H](Cc1c[nH]c2ccccc12)C(N)=O)[C@@H](C)CC (stereo partly shown) [UM15] (H-INNI[X1]W-NH2) ; −TΔS = +6.6 kcal/mol

Data point: CC[C@H](C)[C@H](NC(=O)[C@H](CC(N)=O)NC(=O)[C@H](CC(N)=O)NC(=O)[C@@H](N)CCCNC(N)=O)C(=O)N1C[C@@H](n2cc([C]34[CH]5[CH]6[CH]7[CH]3[Fe]6754389%10[CH]4[CH]3[CH]8[CH]9[CH]4%10)nn2)C[C@H]1C(=O)N[C@@H](Cc1c[nH]c2ccccc12)C(=O)N[C@@H](CO)C(N)=O (stereo partly shown) [UM24] (H-[Cit]NNI[X1]WS-NH2; N-terminus and C-terminus assumed) ; −TΔS = +6.3 kcal/mol

* * *

Experiment: In vitro cytotoxicity, MTT assay
Assay type: cell-based
Conditions: human; P4-CCR5 cells, 2 hours, MTT
measured-parameter: CC50 at 2 h

Data point: CC[C@H](C)[C@H](NC(=O)[C@@H](N)CCCNC(=N)N)C(=O)N[C@@H](CC(N)=O)C(=O)N[C@@H](CC(N)=O)C(=O)N[C@H](C(=O)N1C[C@@H](n2cc([C]34[CH]5[CH]6[CH]7[CH]3[Fe]6754389%10[CH]4[CH]3[CH]8[CH]9[CH]4%10)nn2)C[C@H]1C(=O)N[C@@H](Cc1c[nH]c2ccccc12)C(=O)N[C@@H](CO)C(=O)N[C@@H](CCC(=O)O)C(=O)N[C@@H](C)C(=O)N[C@@H](CCSC)C(=O)N[C@@H](CCSC)C(N)=O)[C@@H](C)CC (stereo partly shown) ; CC50 at 2 h = > 59 µM

These entries and their values trace back to patent US8951963B2.
